# Tested on: MCF7 breast
# experiment_notes: NCI-60 one-dose screen, 48 h (100 = growth as untreated, 0 = no growth, -100 = all killed)
# setup_conditions: 10 µM unless noted
Compounds without any hit were thinned out: in the full panel of roughly 83,000, 20% have a hit.
// map growth onto a label; ranges bottom end (below 30%), midrange (30% to below 80%), top end (80% or more)

Some solved entries appear below for comparison.
- molecule: "C/C(=C(/c1ccc(Cl)cc1)c1ccc(OCCN)cc1)c1ccc(C)cc1"
  label_class: "top end"
- molecule: "Cc1cc2nc3c4cc(Cl)ccc4n(CC(=O)NCCN(C)C)c3nc2cc1C"
  label_class: "bottom end"
- molecule: "O=C(N/N=C/c1ccc(Br)s1)c1[nH]c2ccc(Br)cc2c1-c1ccccc1"
  label_class: "bottom end"
- molecule: "O=C1Nc2cc(Cl)ccc2/C1=C\\c1ccc(OCc2ccc(Br)cc2F)cc1"
  label_class: "bottom end"

**Q:** Which class is correct for the following molecule? Cc1c(NC(=O)CSc2nc3sc4c(c3c(=O)n2-c2ccc(Cl)cc2)CCCC4)c(=O)n(-c2ccccc2)n1C
**A:** midrange

**Q:** Band of COc1ccc(-c2csc(N/N=C/c3c(-c4ccc(S(C)(=O)=O)cc4)nc4ccccn34)n2)cc1 ?
**A:** top end
